# Experiment: Water solubility of isovaleramide and dose number
# Assay type: physicochemical
# Condition details: water, 37° C.
Parameter: solubility

                                   molecule     result
0  CC(C)CC(N)=O [Isovaleramide, isovaleramide]  ~70 mg/mL
